# system-name: CjNapA (WT NapA) (Campylobacter jejuni)
# Construct: recombinant catalytic subunit NapA without NapB; native N-terminal TAT signal peptide replaced by that of E. coli; 889 residues modelled by cryo-EM
# Sequence (Q9PPD9 31-924): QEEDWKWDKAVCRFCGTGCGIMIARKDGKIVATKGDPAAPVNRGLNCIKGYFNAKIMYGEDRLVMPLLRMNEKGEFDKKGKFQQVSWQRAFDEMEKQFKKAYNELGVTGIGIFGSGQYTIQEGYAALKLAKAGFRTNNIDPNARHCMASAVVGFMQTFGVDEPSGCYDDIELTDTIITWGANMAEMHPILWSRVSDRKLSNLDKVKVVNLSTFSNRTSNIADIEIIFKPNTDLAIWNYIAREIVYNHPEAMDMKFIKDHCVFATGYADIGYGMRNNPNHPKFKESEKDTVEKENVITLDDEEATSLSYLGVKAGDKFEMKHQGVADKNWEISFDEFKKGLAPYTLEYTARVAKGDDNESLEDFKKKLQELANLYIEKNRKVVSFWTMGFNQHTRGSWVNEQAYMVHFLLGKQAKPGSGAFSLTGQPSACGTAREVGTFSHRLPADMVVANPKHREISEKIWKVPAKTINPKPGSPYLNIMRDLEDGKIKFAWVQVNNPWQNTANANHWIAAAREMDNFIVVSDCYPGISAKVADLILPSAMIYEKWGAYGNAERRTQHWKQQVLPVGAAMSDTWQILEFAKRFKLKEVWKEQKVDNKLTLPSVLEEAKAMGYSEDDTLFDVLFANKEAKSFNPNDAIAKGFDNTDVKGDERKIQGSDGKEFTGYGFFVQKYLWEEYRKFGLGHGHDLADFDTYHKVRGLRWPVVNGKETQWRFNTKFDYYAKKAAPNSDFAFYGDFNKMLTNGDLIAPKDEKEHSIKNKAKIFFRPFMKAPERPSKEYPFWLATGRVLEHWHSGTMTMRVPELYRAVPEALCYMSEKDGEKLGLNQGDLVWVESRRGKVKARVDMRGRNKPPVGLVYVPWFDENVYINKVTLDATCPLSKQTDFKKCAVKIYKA
# procedure-text: steady-state nitrate reductase assay, reduced methyl viologen oxidation, double-reciprocal plot
property-name: Ki (mM)
Supply the numeric figure in mM, leaving out any unit text.

Item [O-][Cl+3]([O-])([O-])O [perchlorate] has what recorded Ki? 4.7
